The measurements presented in this section are drawn from patent US20240294541A1.

test system: KG-1 (human acute myeloid leukaemia); experiment: In vitro cytotoxicity, MTT assay, KG-1; type: cell-based; details: Homo sapiens; 72 h with compound, MTT; n/a = non-active compound
assay.endpoint: log10 of IC50 (log10 of the value in nM)

1. CCCCCCCNC(=O)N[C@@H]1C=C[C@]2(O[C@H]([C@@H](CC)C(=O)[C@@H](C)[C@@H](O)[C@H](C)[C@@H]3O[C@@H]([C@@H](CC)C(=O)O)CC[C@@H]3C)[C@@H](C)C[C@H]2C)O[C@@]12CC[C@@](C)([C@H]1CC[C@](O)(CC)[C@H](C)O1)O2 [FLC-00350-1]: 1.56
2. CC[C@@H](C(=O)[C@@H](C)[C@@H](O)[C@H](C)[C@@H]1O[C@@H]([C@@H](CC)C(=O)O)CC[C@@H]1C)[C@H]1O[C@]2(C=C[C@@H](NC(=O)Nc3cc(C(F)(F)F)cc(C(F)(F)F)c3)[C@]3(CC[C@@](C)([C@H]4CC[C@](O)(CC)[C@H](C)O4)O3)O2)[C@H](C)C[C@@H]1C [FLC-00344-1 Na]: 2.46
3. CC[C@@H](C(=O)[C@@H](C)[C@@H](O)[C@H](C)[C@@H]1O[C@@H]([C@@H](CC)C(=O)O)CC[C@@H]1C)[C@H]1O[C@]2(C=C[C@@H](NC(=O)NCCCl)[C@]3(CC[C@@](C)([C@H]4CC[C@](O)(CC)[C@H](C)O4)O3)O2)[C@H](C)C[C@@H]1C [FLC-00338-1 Na]: 2.35
4. CC[C@@H](C(=O)[C@@H](C)[C@@H](O)[C@H](C)[C@@H]1O[C@@H]([C@@H](CC)C(=O)O)CC[C@@H]1C)[C@H]1O[C@]2(C=C[C@@H](NC(=O)NS(=O)(=O)c3ccc(C)cc3)[C@]3(CC[C@@](C)([C@H]4CC[C@](O)(CC)[C@H](C)O4)O3)O2)[C@H](C)C[C@@H]1C [FLC-00364-1]: 3.57
5. CC[C@@H](C(=O)[C@@H](C)[C@@H](O)[C@H](C)[C@@H]1O[C@@H]([C@@H](CC)C(=O)O)CC[C@@H]1C)[C@H]1O[C@]2(C=C[C@@H](NC(=S)Nc3ccc(Cl)c(Cl)c3)[C@]3(CC[C@@](C)([C@H]4CC[C@](O)(CC)[C@H](C)O4)O3)O2)[C@H](C)C[C@@H]1C [FLC-00379-1]: 1.59
6. CC[C@@H](C(=O)[C@@H](C)[C@@H](O)[C@H](C)[C@@H]1O[C@@H]([C@@H](CC)C(=O)O)CC[C@@H]1C)[C@H]1O[C@]2(C=C[C@@H](NC(=O)Nc3ccc(F)cc3F)[C@]3(CC[C@@](C)([C@H]4CC[C@](O)(CC)[C@H](C)O4)O3)O2)[C@H](C)C[C@@H]1C [FLC-00359-1]: 1.12
7. CC[C@@H](C(=O)[C@@H](C)[C@@H](O)[C@H](C)[C@@H]1O[C@@H]([C@@H](CC)C(=O)O)CC[C@@H]1C)[C@H]1O[C@]2(C=C[C@@H](NC(=O)NS(=O)(=O)c3ccccc3)[C@]3(CC[C@@](C)([C@H]4CC[C@](O)(CC)[C@H](C)O4)O3)O2)[C@H](C)C[C@@H]1C [FLC-00365-1]: 3.90
